self-cleavage for assorted variants
B1: HDV Ribozyme (parent)
chain: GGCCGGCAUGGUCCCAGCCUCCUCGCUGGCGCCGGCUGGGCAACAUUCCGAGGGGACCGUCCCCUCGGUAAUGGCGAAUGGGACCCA

Variants of: B1
Test: self-cleavage, relative activity (ratio to wild type); higher = more cleavage; co-transcriptional
// print number alone

residue_string | self-cleavage
GGCCGGCAUGGUCCCAGCCUCCUCUCUGGCGCCGGCUGGGCACCAUUCCGAGGGGACCGUCCCCUCGGUAAUGGCGAAUGGGACCCA [G25U A43C] | 0.147
GGCCGGCAUGGUCCCAGCCUCCUCGCUGGCGCCGGCUGGGCAACAUUCCGAGGGGACCGGCCCCUCGGUAAUGGCGUAUGGGACCCA [U60G A77U] | 0.237
GGCCGGCAUGGUUCCAGCCUCCUCGCUGGCGCCGGCUGGACAACAUUCCGAGGGGACCGUCCCCUCGGUAAUGGCGAAUGGGACCCA [C13U G40A] | 0.365

// returns reported self-cleavage for input GGCGGGCAUGGUCCCAGCCUCCUCGCUGGCGCCGGCUGGGCAACAUUCCGAGGGGACCGUCCCCACGGUAAUGGCGAAUGGGACCCA [C4G U65A]
0.525

// returns reported self-cleavage for input GGCCGGCAUGGUCCCAGCCUCCUCGCUGGCGCCGGCUGGGCAACAUUCCGAGGGGACCGUCCCCUCGGUAAUGACGCAUGGGACCCA [G74A A77C]
0.231

// returns reported self-cleavage for input GGCCGGCAUGGUCCCAGCCCCCUCCCUGGCGCCGGCUGGGCAACAUUCCGAGGGGACCGUCCCCUCGGUAAUGGCGAAUGGGACCCA [U20C G25C]
0.227

// returns reported self-cleavage for input GGCCGGCAUGGUCCCAGCCUCCUCGCUGGCGCCGGCUGGGCAACAUUCCGAAGGGACCGUCCCCUCGGCAAUGGCGAAUGGGACCCA [G52A U69C]
1.21

// returns reported self-cleavage for input GGCCGGCAUGGUCCCAGCCUCCUCGCUGGCGGCGGCUGGGCAACAUUCCGAGGGGACCGUCCCCUCGGUAAUGGCGAAUGGGACCAA [C32G C86A]
0.18

// returns reported self-cleavage for input GGCCGGCAUGGUCCCAGCCUCCUCGCUGGCGCCGGCUGGGCAACAUUCCGAGGGGACCGUCCCCUCGGUAACGGCGAAUGGAACCCA [U72C G82A]
0.248

// returns reported self-cleavage for input GGCCGGCAUGGUCCCAGCCUCCUCGCUGGCACUGGCUGGGCAACAUUCCGAGGGGACCGUCCCCUCGGUAAUGGCGAAUGGGACCCA [G31A C33U]
0.359

// returns reported self-cleavage for input GGCCGGCAUGGUCCCAGCCUCCUCGCUGGCGCCGGCUGGGCAACAUUCCGAGCGGACCGUCUCCUCGGUAAUGGCGAAUGGGACCCA [G53C C62U]
1.03

// returns reported self-cleavage for input GGCCGGCAUGGUCCCAGCCUCCUCGCUGGCGCCGGCUGGGCAACAUUCCGAGGGGACCGUACCCUCGGUAAUGUCGAAUGGGACCCA [C61A G74U]
0.63

// returns reported self-cleavage for input GGCCGGCAUGGUCCCAGCCUCCUCGCUUGCGCCGGCUGGGCAACAUUCCGAGGGGACCGUCCCCUCGGUAAUGACGAAUGGGACCCA [G28U G74A]
0.0528

// returns reported self-cleavage for input GGCCGGCAUGGUCCCAGCCUCCUCGCAGGCGCCGGCCGGGCAACAUUCCGAGGGGACCGUCCCCUCGGUAAUGGCGAAUGGGACCCA [U27A U37C]
0.578

// returns reported self-cleavage for input GGCCGGCAUGGACCCAGCCUCCUCGCUGGCGCCGGAUGGGCAACAUUCCGAGGGGACCGUCCCCUCGGUAAUGGCGAAUGGGACCCA [U12A C36A]
0.0992
